target: Taq DNA polymerase (Thermus aquaticus, UniProt P19821); experiment: Competition of dATP and ddATP at a single site in synthetic Primer-Template A (Example 4); format: biochemical; conditions: 10 μM dATP; read-out: [ddATP] for 50% inhibition
Sequence (P19821 whole entry): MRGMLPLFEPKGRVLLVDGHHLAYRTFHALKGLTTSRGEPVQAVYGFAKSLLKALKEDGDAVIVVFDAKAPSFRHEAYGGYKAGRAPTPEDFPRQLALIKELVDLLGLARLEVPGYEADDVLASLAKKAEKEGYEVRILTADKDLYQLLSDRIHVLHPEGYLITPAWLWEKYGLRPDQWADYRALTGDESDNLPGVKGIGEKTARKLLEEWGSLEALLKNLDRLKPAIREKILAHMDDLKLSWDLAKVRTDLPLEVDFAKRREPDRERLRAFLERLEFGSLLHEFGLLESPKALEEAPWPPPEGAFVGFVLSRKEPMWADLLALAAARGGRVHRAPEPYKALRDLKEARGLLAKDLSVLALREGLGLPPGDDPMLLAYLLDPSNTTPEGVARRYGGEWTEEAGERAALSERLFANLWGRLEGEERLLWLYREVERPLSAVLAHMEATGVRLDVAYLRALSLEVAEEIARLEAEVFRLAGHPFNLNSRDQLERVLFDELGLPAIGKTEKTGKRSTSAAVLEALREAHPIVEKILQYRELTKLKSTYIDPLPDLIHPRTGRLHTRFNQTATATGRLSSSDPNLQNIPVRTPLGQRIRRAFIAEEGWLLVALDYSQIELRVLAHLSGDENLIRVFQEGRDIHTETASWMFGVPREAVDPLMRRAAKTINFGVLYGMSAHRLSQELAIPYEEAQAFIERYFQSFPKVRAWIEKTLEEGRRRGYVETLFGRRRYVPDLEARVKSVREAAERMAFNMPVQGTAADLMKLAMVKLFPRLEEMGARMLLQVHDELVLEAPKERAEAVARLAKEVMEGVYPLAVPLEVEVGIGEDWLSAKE
pIC50: −log10 of the molar value.
experimental readout: pIC50

Reported Taq DNA polymerase (Thermus aquaticus, UniProt P19821) pIC50 for item Nc1ncnc2c1ncn2[C@H]1CC[C@@H](COP(=O)(O)OP(=O)(O)OP(=O)(O)O)O1 [ddATP] was < 3.30

----------
The reader will find reported D, discrimination factor, ratio of use of dNTP to comparable ddNTP values listed item by item below.
biological target: T7 DNA polymerase (Escherichia phage T7, UniProt P00581, DEL118-145); type: biochemical, Bacteriophage T7; details: equal concentrations; D=Y/(1-Y) at X=1
Sequence (P00581 other isoform, or with tags, fused parts or gaps DEL118-145): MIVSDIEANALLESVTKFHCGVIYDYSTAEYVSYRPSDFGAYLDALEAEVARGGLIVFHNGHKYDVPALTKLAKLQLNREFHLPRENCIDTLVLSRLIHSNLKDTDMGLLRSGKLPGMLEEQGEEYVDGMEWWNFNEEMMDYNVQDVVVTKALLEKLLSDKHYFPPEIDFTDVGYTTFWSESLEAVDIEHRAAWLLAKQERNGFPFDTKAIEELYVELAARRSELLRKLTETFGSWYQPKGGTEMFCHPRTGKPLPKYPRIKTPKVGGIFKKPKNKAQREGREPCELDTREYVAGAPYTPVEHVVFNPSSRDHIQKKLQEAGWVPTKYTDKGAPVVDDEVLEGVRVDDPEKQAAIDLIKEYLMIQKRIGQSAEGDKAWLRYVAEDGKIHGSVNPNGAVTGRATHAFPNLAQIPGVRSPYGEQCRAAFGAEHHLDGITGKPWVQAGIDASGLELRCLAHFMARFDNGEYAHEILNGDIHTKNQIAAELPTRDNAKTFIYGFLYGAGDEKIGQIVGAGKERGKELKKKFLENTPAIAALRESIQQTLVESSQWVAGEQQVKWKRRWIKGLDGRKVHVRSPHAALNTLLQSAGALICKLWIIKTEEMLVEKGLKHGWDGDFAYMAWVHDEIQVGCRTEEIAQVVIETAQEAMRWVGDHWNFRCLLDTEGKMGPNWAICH
Sequence (P0AA25 2-109, stated change not applied, further chain): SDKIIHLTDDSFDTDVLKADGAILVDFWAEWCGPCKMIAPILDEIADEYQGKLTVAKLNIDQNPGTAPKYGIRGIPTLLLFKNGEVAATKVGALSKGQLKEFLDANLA
Answer as a number with no unit attached.

Nc1ncnc2c1ncn2[C@H]1CC[C@@H](COP(=O)(O)OP(=O)(O)OP(=O)(O)O)O1
2.3
Nc1nc2c(ncn2[C@H]2CC[C@@H](COP(=O)(O)OP(=O)(O)OP(=O)(O)O)O2)c(=O)[nH]1
2.2
Cc1cn([C@H]2CC[C@@H](COP(=O)(O)OP(=O)(O)OP(=O)(O)O)O2)c(=O)[nH]c1=O
1.8

// next entry
Short answer for Nc1ccn([C@H]2CC[C@@H](COP(=O)(O)OP(=O)(O)OP(=O)(O)O)O2)c(=O)n1 : D, discrimination factor, ratio of use of dNTP to comparable ddNTP was 2.7

----------
The reader will find reported Incorporation Rate Ratios dN/ddN values listed item by item below.
target: E. coli DNA polymerase I (Escherichia coli, UniProt P00582); settings: 10 μM 4 dNTPs, ddNTP 100 to 2,000 μM; factor versus F762Y multiplied by its absolute ratio
Sequence (P00582 324-928): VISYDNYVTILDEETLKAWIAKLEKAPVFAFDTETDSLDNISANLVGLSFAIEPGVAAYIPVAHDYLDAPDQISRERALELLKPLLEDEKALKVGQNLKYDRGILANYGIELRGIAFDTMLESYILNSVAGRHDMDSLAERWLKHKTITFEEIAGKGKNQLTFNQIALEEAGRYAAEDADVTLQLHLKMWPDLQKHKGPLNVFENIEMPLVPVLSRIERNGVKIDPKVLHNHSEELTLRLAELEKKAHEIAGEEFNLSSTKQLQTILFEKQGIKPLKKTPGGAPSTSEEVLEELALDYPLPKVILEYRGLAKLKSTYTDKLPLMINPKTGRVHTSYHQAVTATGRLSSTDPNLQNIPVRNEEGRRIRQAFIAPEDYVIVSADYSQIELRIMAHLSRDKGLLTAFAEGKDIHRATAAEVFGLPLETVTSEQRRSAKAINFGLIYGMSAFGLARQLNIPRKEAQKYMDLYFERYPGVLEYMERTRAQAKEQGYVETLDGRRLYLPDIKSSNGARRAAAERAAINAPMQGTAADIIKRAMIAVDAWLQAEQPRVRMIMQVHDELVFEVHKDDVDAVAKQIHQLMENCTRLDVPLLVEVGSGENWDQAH
Answer as a number with no unit attached.

Sample records with Incorporation Rate Ratios dN/ddN:
Nc1nc2c(ncn2[C@H]2CC[C@@H](COP(=O)(O)OP(=O)(O)OP(=O)(O)O)O2)c(=O)[nH]1
140
Nc1ncnc2c1ncn2[C@H]1CC[C@@H](COP(=O)(O)OP(=O)(O)OP(=O)(O)O)O1
720

// next entry
Reported E. coli DNA polymerase I (Escherichia coli, UniProt P00582) Incorporation Rate Ratios dN/ddN for item Nc1ccn([C@H]2CC[C@@H](COP(=O)(O)OP(=O)(O)OP(=O)(O)O)O2)c(=O)n1 was 250

----------
The reader will find reported M, calculated exponential decay function values listed item by item below.
target: Taq DNA polymerase F667Y (Thermus aquaticus, UniProt P19821, F667Y); format: biochemical; conditions: 1:1 dNTP:ddNTP; fit Y=e^M*X
Sequence (P19821 whole entry F667Y): as the sequence (P19821 whole entry) above, with F667Y counted along it

Cc1cn([C@H]2CC[C@@H](COP(=O)(O)OP(=O)(O)OP(=O)(O)O)O2)c(=O)[nH]c1=O
-1.01

Short answer for Nc1nc2c(ncn2[C@H]2CC[C@@H](COP(=O)(O)OP(=O)(O)OP(=O)(O)O)O2)c(=O)[nH]1 : M, calculated exponential decay function was -1.18

Short answer for Nc1ccn([C@H]2CC[C@@H](COP(=O)(O)OP(=O)(O)OP(=O)(O)O)O2)c(=O)n1 : M, calculated exponential decay function was -1.44

Short answer for Nc1ncnc2c1ncn2[C@H]1CC[C@@H](COP(=O)(O)OP(=O)(O)OP(=O)(O)O)O1 : M, calculated exponential decay function was -0.997

----------
biological target: Taq DNA polymerase (Thermus aquaticus); settings: 10 μM 4 dNTPs, ddNTP 100 to 2,000 μM; factor versus F667Y multiplied by its absolute ratio
The reader will find reported Incorporation Rate Ratios dN/ddN values listed item by item below.

Sample records with Incorporation Rate Ratios dN/ddN:
Nc1ncnc2c1ncn2[C@H]1CC[C@@H](COP(=O)(O)OP(=O)(O)OP(=O)(O)O)O1
4,700
Cc1cn([C@H]2CC[C@@H](COP(=O)(O)OP(=O)(O)OP(=O)(O)O)O2)c(=O)[nH]c1=O
4,500

Reported Taq DNA polymerase (Thermus aquaticus) Incorporation Rate Ratios dN/ddN for item Nc1nc2c(ncn2[C@H]2CC[C@@H](COP(=O)(O)OP(=O)(O)OP(=O)(O)O)O2)c(=O)[nH]1 was 1,400

Reported Taq DNA polymerase (Thermus aquaticus) Incorporation Rate Ratios dN/ddN for item Nc1ccn([C@H]2CC[C@@H](COP(=O)(O)OP(=O)(O)OP(=O)(O)O)O2)c(=O)n1 was 2,600

----------
molecular target: Taq DNA polymerase F667Y (Thermus aquaticus, UniProt P19821, F667Y); assay type: biochemical; details: absolute ratios from 1:1 dNTP:ddNTP test
experimental readout: Incorporation Rate Ratios dN/ddN
Answer as a number with no unit attached.

Sample records with Incorporation Rate Ratios dN/ddN:
Nc1nc2c(ncn2[C@H]2CC[C@@H](COP(=O)(O)OP(=O)(O)OP(=O)(O)O)O2)c(=O)[nH]1 [ddGTP]
0.45
Cc1cn([C@H]2CC[C@@H](COP(=O)(O)OP(=O)(O)OP(=O)(O)O)O2)c(=O)[nH]c1=O [ddTTP]
0.56
Nc1ncnc2c1ncn2[C@H]1CC[C@@H](COP(=O)(O)OP(=O)(O)OP(=O)(O)O)O1 [ddATP]
0.59

// next entry
Short answer for Nc1ccn([C@H]2CC[C@@H](COP(=O)(O)OP(=O)(O)OP(=O)(O)O)O2)c(=O)n1 [ddCTP] : Incorporation Rate Ratios dN/ddN was 0.32
